# SPOT intensity values compiled below
Biological target: T1, Hse1, P38753
T1 sequence (P38753 208-285, looked up): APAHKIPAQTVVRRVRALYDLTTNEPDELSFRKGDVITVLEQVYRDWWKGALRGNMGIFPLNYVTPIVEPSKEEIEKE
Assay: SPOT array
Settings: median of control spots 1727

| binder | SPOT intensity |
| --- | --- |
| RSVKRPRRAPRPVVS | 8 |
| APKREAPKPPANTSP | 0 |
| APKHAPPPVPNETDN | 3 |
| RAPPPVPKKPSSRIA | 857 |
| SKSRLLIELPEGFFT | 0 |
| STKKPRPPVKSKPKH | 1 |
| TSFKGRPKPPKTLKH | 2 |
| RKNRAPPQRPRFNRE | 25 |
| NMLKKKPLKKPLKRF | 187 |
| IAPIPMPKPNPTHIS | 0 |
| HAPPLPPTAPPPPSL | 0 |
| ISPPASPPPEFDFSK | 0 |
| QLMKNLPKIPLLNDI | 1 |
| ATNVPVAPPPPPASL | 0 |
| KLSRGRYGLPLSSRP | 10 |
| LKHGWKPLRPIKLIS | 147 |
